measurement.notes: recombinant UMI read abundance after kanamycin selection (control-corrected) (log10(CPM+1)); higher = more efficient recombination; extreme values may be limits of the assay; sequences stand for … in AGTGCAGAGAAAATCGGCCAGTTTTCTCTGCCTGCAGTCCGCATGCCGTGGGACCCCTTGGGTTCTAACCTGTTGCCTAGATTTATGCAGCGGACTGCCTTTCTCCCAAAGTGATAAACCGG…AGGTTGGTTTCACT; site = the 11-nt donor;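 also: IS621 bridge recombinase in Escherichia coli cells against a fixed T5 target plasmid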
Use TRUE when the recorded recombinant UMI read abundance (log10) is no lower than 0.01; use FALSE when it is lower.

Please check the record GCTCCAACATGGACCGGTTTTCCCGGTAATCCGTATTTGTA (site GATCCAACTTA) and state if its recombinant UMI read abundance (log10) is at or above 0.01.
TRUE

Please check the record TCAGTATCATGGACCGGTTTTCCCGGTAATCCGTATTTGCA (site CCAGTATCTTG) and state if its recombinant UMI read abundance (log10) is at or above 0.01.
TRUE

Please check the record ACACGAACATGGACCGGTTTTCCCGGTAATCCGTATTTGTT (site ACACGAACTAA) and state if its recombinant UMI read abundance (log10) is at or above 0.01.
TRUE

Please check the record ACAGTATCATGGACCGGTTTTCCCGGTAATCCGTATTTGGA (site ACAGTATCTTA) and state if its recombinant UMI read abundance (log10) is at or above 0.01.
TRUE

Please check the record AGTTACACATGGACCGGTTTTCCCGGTAATCCGTATTTGCC (site AGTTACACTGG) and state if its recombinant UMI read abundance (log10) is at or above 0.01.
TRUE

Please check the record CGCCCGGCATGGACCGGTTTTCCCGGTAATCCGTATTTGGT (site CGCCCGGCTAC) and state if its recombinant UMI read abundance (log10) is at or above 0.01.
TRUE

Please check the record AGAAAGGCATGGACCGGTTTTCCCGGTAATCCGTATTTGGT (site AGAAAGGCTAT) and state if its recombinant UMI read abundance (log10) is at or above 0.01.
TRUE

Please check the record TTAGCTGCATGGACCGGTTTTCCCGGTAATCCGTATTTGGG (site TTAGCTGCTCA) and state if its recombinant UMI read abundance (log10) is at or above 0.01.
FALSE

Please check the record CTGGGCGCATGGACCGGTTTTCCCGGTAATCCGTATTTGCA (site AATACGCCTAT) and state if its recombinant UMI read abundance (log10) is at or above 0.01.
TRUE

Please check the record TAGTAATCATGGACCGGTTTTCCCGGTAATCCGTATTTGCG (site TAGCAATCTCG) and state if its recombinant UMI read abundance (log10) is at or above 0.01.
TRUE

Please check the record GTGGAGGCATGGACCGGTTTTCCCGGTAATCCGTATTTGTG (site GTTGAGGCTCA) and state if its recombinant UMI read abundance (log10) is at or above 0.01.
TRUE

Please check the record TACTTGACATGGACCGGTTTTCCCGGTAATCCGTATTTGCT (site TAATTGACTAG) and state if its recombinant UMI read abundance (log10) is at or above 0.01.
TRUE

Please check the record ACCTGCCCATGGACCGGTTTTCCCGGTAATCCGTATTTGTT (site ACCTGCCCTAA) and state if its recombinant UMI read abundance (log10) is at or above 0.01.
TRUE

Please check the record AAGTTACCATGGACCGGTTTTCCCGGTAATCCGTATTTGAC (site AAGTTACCTGT) and state if its recombinant UMI read abundance (log10) is at or above 0.01.
FALSE

Please check the record CCGTTAACATGGACCGGTTTTCCCGGTAATCCGTATTTGCT (site CCGTTCACTAG) and state if its recombinant UMI read abundance (log10) is at or above 0.01.
FALSE

Please check the record AGTACACCATGGACCGGTTTTCCCGGTAATCCGTATTTGAC (site TGTACACCTGT) and state if its recombinant UMI read abundance (log10) is at or above 0.01.
FALSE

Please check the record CCCACCGCATGGACCGGTTTTCCCGGTAATCCGTATTTGCG (site TCCACCGCTCG) and state if its recombinant UMI read abundance (log10) is at or above 0.01.
FALSE

Please check the record AACCTTCCATGGACCGGTTTTCCCGGTAATCCGTATTTGAT (site AACCTTCCTAT) and state if its recombinant UMI read abundance (log10) is at or above 0.01.
FALSE

Please check the record TGGGCACCATGGACCGGTTTTCCCGGTAATCCGTATTTGCA (site AGGGCACCTTG) and state if its recombinant UMI read abundance (log10) is at or above 0.01.
FALSE

Please check the record CGGGAATCATGGACCGGTTTTCCCGGTAATCCGTATTTGCC (site CGGGACTCTGG) and state if its recombinant UMI read abundance (log10) is at or above 0.01.
TRUE

Please check the record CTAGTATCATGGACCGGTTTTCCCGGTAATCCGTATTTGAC (site ACAGTATCTGT) and state if its recombinant UMI read abundance (log10) is at or above 0.01.
TRUE

Please check the record CGGGAAACATGGACCGGTTTTCCCGGTAATCCGTATTTGAT (site CGGGAATCTAT) and state if its recombinant UMI read abundance (log10) is at or above 0.01.
TRUE

Please check the record CGTTTGGCATGGACCGGTTTTCCCGGTAATCCGTATTTGCC (site CGTTTGGCTTG) and state if its recombinant UMI read abundance (log10) is at or above 0.01.
FALSE

Please check the record TAGCTAGCATGGACCGGTTTTCCCGGTAATCCGTATTTGAC (site TAGCTAGCTAT) and state if its recombinant UMI read abundance (log10) is at or above 0.01.
TRUE

Please check the record AGAAAGGCATGGACCGGTTTTCCCGGTAATCCGTATTTGGT (site AGAAAGGCTAG) and state if its recombinant UMI read abundance (log10) is at or above 0.01.
TRUE

Please check the record GGTCCGACATGGACCGGTTTTCCCGGTAATCCGTATTTGTA (site GGTCCGACTTA) and state if its recombinant UMI read abundance (log10) is at or above 0.01.
TRUE

Please check the record CGAGGGCCATGGACCGGTTTTCCCGGTAATCCGTATTTGGG (site CGAGGGCCTCC) and state if its recombinant UMI read abundance (log10) is at or above 0.01.
TRUE

Please check the record TGCTCATCATGGACCGGTTTTCCCGGTAATCCGTATTTGCT (site CGATCATCTAG) and state if its recombinant UMI read abundance (log10) is at or above 0.01.
FALSE

Please check the record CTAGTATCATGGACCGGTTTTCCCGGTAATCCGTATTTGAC (site CCAGTAGCTGT) and state if its recombinant UMI read abundance (log10) is at or above 0.01.
FALSE

Please check the record ATGGAGGCATGGACCGGTTTTCCCGGTAATCCGTATTTGTG (site CTGGAGGCTCA) and state if its recombinant UMI read abundance (log10) is at or above 0.01.
TRUE

Please check the record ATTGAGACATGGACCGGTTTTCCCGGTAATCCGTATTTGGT (site CTTGAGACTAC) and state if its recombinant UMI read abundance (log10) is at or above 0.01.
TRUE

Please check the record TGCTCCCCATGGACCGGTTTTCCCGGTAATCCGTATTTGGT (site TGCTCCCCTAC) and state if its recombinant UMI read abundance (log10) is at or above 0.01.
TRUE

Please check the record ACAGGATCATGGACCGGTTTTCCCGGTAATCCGTATTTGAA (site ACAGTATCTTG) and state if its recombinant UMI read abundance (log10) is at or above 0.01.
FALSE

Please check the record CTAGGATCATGGACCGGTTTTCCCGGTAATCCGTATTTGAT (site CTAGTATCTGT) and state if its recombinant UMI read abundance (log10) is at or above 0.01.
FALSE

Please check the record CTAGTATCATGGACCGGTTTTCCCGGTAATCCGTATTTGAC (site CTACTATCTTT) and state if its recombinant UMI read abundance (log10) is at or above 0.01.
TRUE

Please check the record TACTTGACATGGACCGGTTTTCCCGGTAATCCGTATTTGCA (site TACTTGACTTG) and state if its recombinant UMI read abundance (log10) is at or above 0.01.
TRUE

Cited source: the supplement of paper PMC11208160
